test: Tissue distribution of radioactivity after intravenous administration in rats; type: in vivo, female Fischer 344 rats (printed "femal Fischer 344 rats"); details: rat, blood, iv, Table 2; blood; 60 min after i.v. injection; read-out: Mean percent injected dose/gm, Blood
Reported Endpoint: tissue uptake at 1 h
Answer as a quantity: numeral, then unit.

### Prompt Given O=C1C=CC(=O)N1c1ccc([125I])cc1 [[^125 I]4, N-(p-[^125 I]iodophenyl)maleimide] , respond with its tissue uptake at 1 h.
### Response 48.6 %ID/g

---

assay: Tissue distribution of radioactivity after intravenous administration in rats; assay type: in vivo, female Fischer 344 rats (printed "femal Fischer 344 rats"); conditions: rat, thyroid, iv, Table 1; thyroid; 30 min after i.v. injection; read-out: Mean percent injected dose/gm, Thyroid
Reported Endpoint: tissue uptake at 0.5 h
Provide a numeric answer, followed by its unit.

### Prompt Consider the compound O=C1C=CC(=O)N1c1ccc([125I])cc1 [[^125 I]4, N-(p-[^125 I]iodophenyl)maleimide] . State its measured tissue uptake at 0.5 h.
### Response 21.7 %ID/g

---

test: Tissue distribution of radioactivity after intravenous administration in rats; assay type: in vivo, female Fischer 344 rats (printed "femal Fischer 344 rats"); conditions: rat, blood, iv, Table 1; blood; 30 min after i.v. injection; read-out: Mean percent injected dose/gm, Blood
Reported Endpoint: tissue uptake at 0.5 h (%ID/g)
Answer in %ID/g, number only, no unit symbol.

### Prompt Look up tissue uptake at 0.5 h of O=C1C=CC(=O)N1c1ccc([125I])cc1 [[^125 I]4, N-(p-[^125 I]iodophenyl)maleimide] and report it.
### Response 8.44

---

assay: Tissue distribution of radioactivity after intravenous administration in rats; assay type: in vivo, female Fischer 344 rats (printed "femal Fischer 344 rats"); settings: rat, liver, iv, Table 1; liver; 30 min after i.v. injection; read-out: Mean percent injected dose/gm, Liver
Reported Endpoint: tissue uptake at 0.5 h (%ID/g)
Please give a number only; it is taken to be in %ID/g.

### Prompt Report tissue uptake at 0.5 h, nothing else, for this compound: O=C1C=CC(=O)N1c1ccc([125I])cc1 [[^125 I]4, N-(p-[^125 I]iodophenyl)maleimide]
### Response 1.73

---

test: Tissue distribution of radioactivity after intravenous administration in rats; type: in vivo, female Fischer 344 rats (printed "femal Fischer 344 rats"); conditions: rat, lungs, iv, Table 1; lungs; 5 min after i.v. injection; read-out: Mean percent injected dose/gm, Lungs
Reported Endpoint: tissue uptake at 5 min (%ID/g)
Give just the numeric value; %ID/g need not be written.

### Prompt Given O=C1C=CC(=O)N1c1ccc([125I])cc1 [[^125 I]4, N-(p-[^125 I]iodophenyl)maleimide] , respond with its tissue uptake at 5 min.
### Response 2.04

---

Assay: Tissue distribution of radioactivity after intravenous administration in rats
Format: in vivo, female Fischer 344 rats (printed "femal Fischer 344 rats")
Settings: rat, blood, iv, Table 2; blood; 30 min after i.v. injection; read-out: Mean percent injected dose/gm, Blood
Procedure: 4-[^125 I]iodoaniline (7.4 mCi sp. act. 700 mCi/mmol) prepared following structure described in Step 1 of Example 1 was coupled with maleic anhydride (9.5 mg) in glacial acetic acid (0.15 ml) at room temperature. The radioiodinated compound, [^125 I]3 isolated by silica gel column chromatography was refluxed with acetic anhydride The distribution of radiactivity in tissues of femal Fischer 344 rats […] The distribution of radioactivity in tissues of femal Fischer 344 rats […]
Reported Endpoint: tissue uptake at 0.5 h (%ID/g)
Respond numerically; units are %ID/g and should not be typed.

### Prompt Assign tissue uptake at 0.5 h to the following record: O=C1C=CC(=O)N1c1ccc([125I])cc1 [[^125 I]4, N-(p-[^125 I]iodophenyl)maleimide]
### Response 54.1
